- measured target: P2X purinoceptor 7 (Homo sapiens, UniProt Q99572)
- Sequence (Q99572 whole entry): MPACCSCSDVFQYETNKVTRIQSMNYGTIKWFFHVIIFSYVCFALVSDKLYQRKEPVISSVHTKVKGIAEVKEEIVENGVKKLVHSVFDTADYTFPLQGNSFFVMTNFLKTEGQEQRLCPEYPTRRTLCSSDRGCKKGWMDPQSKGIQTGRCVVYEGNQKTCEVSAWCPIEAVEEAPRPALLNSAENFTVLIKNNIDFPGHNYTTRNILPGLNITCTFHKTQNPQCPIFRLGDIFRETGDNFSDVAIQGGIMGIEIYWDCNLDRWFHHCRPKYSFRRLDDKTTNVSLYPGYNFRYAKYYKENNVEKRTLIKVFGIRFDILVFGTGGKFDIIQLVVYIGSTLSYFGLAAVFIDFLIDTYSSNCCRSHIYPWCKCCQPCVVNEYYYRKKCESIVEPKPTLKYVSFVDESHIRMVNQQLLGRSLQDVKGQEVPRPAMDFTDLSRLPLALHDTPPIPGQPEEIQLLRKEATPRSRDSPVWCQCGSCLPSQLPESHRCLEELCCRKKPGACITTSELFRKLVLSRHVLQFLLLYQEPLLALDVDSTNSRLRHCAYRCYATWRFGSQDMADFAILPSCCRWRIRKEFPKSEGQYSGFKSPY
- assay name: Antagonist activity at human P2X7 receptor expressed in human 1321N1 cells assessed as inhibition of calcium flux by FLIPR
experimental endpoint: IC50

Some entries whose results are on file:
>>> print(df.to_string())
                           query_smiles  experimental_endpoint    result
0     Clc1ccc(Cl)c(-c2nnnn2Cc2cccnc2)c1                   IC50  15800 nM
1      Cc1ccccc1Cn1nnnc1-c1cccc(Cl)c1Cl                   IC50   15.8 nM
2       Clc1ccc(-c2nnnn2Cc2cccnc2)cc1Cl                   IC50   3980 nM
3       Clc1cccc(-c2nnnn2Cc2ccccc2)c1Cl                   IC50   39.8 nM
4         Clc1cccc(-c2nnnn2Cc2cccnc2)c1                   IC50   7940 nM
5   Clc1ccc(-c2nnnn2Cc2cccnc2)c(Cl)c1Cl                   IC50    200 nM
6     c1ccc(Cn2nnnc2-c2cccc3ncccc23)cc1                   IC50  15800 nM
7  Fc1cccc(-c2nnnn2Cc2cccnc2)c1C(F)(F)F                   IC50    631 nM

Report IC50 for every entry below.
1. c1ccc(Cn2nnnc2-c2ccncc2)cc1
2. Fc1ccc(-c2nnnn2Cc2cccnc2)c(Cl)c1Cl
3. Fc1ccc(-n2nnnc2Cc2cccnc2)c(Cl)c1C(F)(F)F
4. Clc1cccc(-n2nnnc2Cc2cccnc2)c1Cl
5. Fc1ccc(-n2nnnc2Cc2cccnc2)c(Cl)c1Cl

Given back:
1: 31600 nM; 2: 12.6 nM; 3: 20 nM; 4: 100 nM; 5: 25.1 nM
